- System: HCT-116
- Test protocol: Induction of apoptosis in human HCT116 cells assessed as increase in caspase 3 mRNA expression at 100 nM after 6 hrs hrs by SYBR green dye-based qRT-PCR analysis relative to control
- Format: functional
Reported fold change (FC) values for a set of compounds
Keep it simple and answer with nothing but the number.

N=C(N)c1ccc(-c2ccc(-c3ccc4ccccc4c3)s2)s1 :: 2.59
N=C(N)c1ccc(-c2ccc(-c3cc(Cl)cc(Cl)c3)s2)s1 :: 1.61
COc1cc(-c2ccc(-c3ccc(C(=N)N)s3)s2)cc(OC)c1OC :: 2.67
N=C(N)c1ccc(-c2ccc(-c3cc(Cl)cc(Cl)c3)o2)o1 :: 2.81
N=C(N)c1ccc(-c2ccc(-c3ccc(F)cc3)s2)s1 :: 3.71

Lookup: Field request: fold change (FC) | item: `N=C(N)c1ccc(-c2ccc(-c3ccc(F)cc3)o2)o1`
Found: 3.88

Lookup: Can you check `COc1ccc(-c2ccc(-c3ccc(C(=N)N)s3)s2)cc1` next?
Found: 2.51

Lookup: Can you check `COc1ccc2cc(-c3ccc(-c4ccc(C(=N)N)s4)s3)ccc2c1` next?
Found: 2.44

Lookup: Can you check `N=C(N)c1ccc(-c2ccc(-c3ccc(Cl)cc3)o2)o1` next?
Found: 3.55

Lookup: Can you check `COc1cccc(-c2ccc(-c3ccc(C(=N)N)s3)s2)c1` next?
Found: 3.71

Lookup: Can you check `COc1ccc(-c2ccc(-c3ccc(C(=N)N)o3)o2)cc1` next?
Found: 2.67
